Quick record of pKi values for Mtb β-CA3 (Mycobacterium tuberculosis, UniProt P96878).
API: returns pKi as number; meaning -log10 of concentration in mol/L.

Could you share which pKi value was measured for "O=C(S)NCCc1ccccc1" ? 7.03

Entry to check: "O=C(S)N1CCOCC1" 6.13

Entry to check: "O=C(CN1CCN(C(=O)S)CC1)NC1CCCCC1" 6.11

Entry to check: "S=C(S)N1CCOCC1" 8.62

Entry to check: "CC(C)CN(CC(C)C)C(=S)S" 7.37

Entry to check: "CCCN(CCC)C(=O)S" 6.25

Entry to check: "O=C(S)N1CCN(C(=O)S)CC1" 6.09

Entry to check: "S=C(S)N1CCN(C(=S)S)CC1" 8.10

Entry to check: "COc1ccc(CCNC(=O)S)cc1OC" 7.01

The reported measurements were obtained from paper PMC6830242.
